- Tested on: PPARg:RXRa (NR concentration 180 nM, RXRa partner concentration 90 nM)
- PROTOCOL TEXT: PBM binding z-score (relative to random genomic background probes); higher = stronger binding; sequences stand for … in GC…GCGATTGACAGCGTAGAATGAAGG
Recorded measurements of PBM binding z-score, one per entry

- SEQUENCE ENTRY: "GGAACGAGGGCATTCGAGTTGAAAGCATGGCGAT"
  STUDY TARGET: "PPARg:RXRa (NR concentration 180 nM, RXRa partner concentration 90 nM)"
  PBM binding z-score: 0.762
- SEQUENCE ENTRY: "TCATATAGGTAAAGATGAAAGTCGAACGATATGA"
  STUDY TARGET: "PPARg:RXRa (NR concentration 180 nM, RXRa partner concentration 90 nM)"
  PBM binding z-score: 1.38
- SEQUENCE ENTRY: "CGAACCAGGGCATGAGTTGATAGCAAATGCCGAT"
  STUDY TARGET: "PPARg:RXRa (NR concentration 180 nM, RXRa partner concentration 90 nM)"
  PBM binding z-score: 1.15
- SEQUENCE ENTRY: "GCTACCAGGCCATTTGGGTCACTCAATGACGGGC"
  STUDY TARGET: "PPARg:RXRa (NR concentration 180 nM, RXRa partner concentration 90 nM)"
  PBM binding z-score: 0.923
- SEQUENCE ENTRY: "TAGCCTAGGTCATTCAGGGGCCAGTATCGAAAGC"
  STUDY TARGET: "PPARg:RXRa (NR concentration 180 nM, RXRa partner concentration 90 nM)"
  PBM binding z-score: 1.95
- SEQUENCE ENTRY: "ATATGTAGGTTACATCCGGGTCACTCAGGCTATG"
  STUDY TARGET: "PPARg:RXRa (NR concentration 180 nM, RXRa partner concentration 90 nM)"
  PBM binding z-score: 6.07
- SEQUENCE ENTRY: "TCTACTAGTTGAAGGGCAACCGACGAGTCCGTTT"
  STUDY TARGET: "PPARg:RXRa (NR concentration 180 nM, RXRa partner concentration 90 nM)"
  PBM binding z-score: 0.214
- SEQUENCE ENTRY: "TCTTGTAGATCAAAGGTTAAGTAAGCCGAAGCCT"
  STUDY TARGET: "PPARg:RXRa (NR concentration 180 nM, RXRa partner concentration 90 nM)"
  PBM binding z-score: 8.98
- SEQUENCE ENTRY: "TTACCAGGGTGAAAGGTCGTTGATGCACGCCTTG"
  STUDY TARGET: "PPARg:RXRa (NR concentration 180 nM, RXRa partner concentration 90 nM)"
  PBM binding z-score: 8.62
- SEQUENCE ENTRY: "TTACCAAGGTGAAAGGTCGCTGATGCACGCCTTG"
  STUDY TARGET: "PPARg:RXRa (NR concentration 180 nM, RXRa partner concentration 90 nM)"
  PBM binding z-score: 8.28
- SEQUENCE ENTRY: "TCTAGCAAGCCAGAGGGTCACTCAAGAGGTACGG"
  STUDY TARGET: "PPARg:RXRa (NR concentration 180 nM, RXRa partner concentration 90 nM)"
  PBM binding z-score: 0.737
- SEQUENCE ENTRY: "TCTGCTAGGTCAACGACGGTCAGCTAATCTGCTA"
  STUDY TARGET: "PPARg:RXRa (NR concentration 180 nM, RXRa partner concentration 90 nM)"
  PBM binding z-score: 2.09
- SEQUENCE ENTRY: "AGAACGAGGGCACGCTGAGTTGATATCAGAGTAG"
  STUDY TARGET: "PPARg:RXRa (NR concentration 180 nM, RXRa partner concentration 90 nM)"
  PBM binding z-score: 2.14
- SEQUENCE ENTRY: "GATACAGGGTCGAGGCCAGAGTACGCGTATTGAT"
  STUDY TARGET: "PPARg:RXRa (NR concentration 180 nM, RXRa partner concentration 90 nM)"
  PBM binding z-score: 1.21
- SEQUENCE ENTRY: "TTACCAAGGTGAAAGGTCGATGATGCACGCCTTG"
  STUDY TARGET: "PPARg:RXRa (NR concentration 180 nM, RXRa partner concentration 90 nM)"
  PBM binding z-score: 8.4
- SEQUENCE ENTRY: "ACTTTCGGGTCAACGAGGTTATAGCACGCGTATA"
  STUDY TARGET: "PPARg:RXRa (NR concentration 180 nM, RXRa partner concentration 90 nM)"
  PBM binding z-score: 4.94
- SEQUENCE ENTRY: "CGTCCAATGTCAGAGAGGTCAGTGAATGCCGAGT"
  STUDY TARGET: "PPARg:RXRa (NR concentration 180 nM, RXRa partner concentration 90 nM)"
  PBM binding z-score: 0.78
- SEQUENCE ENTRY: "GCTTCTAGGTCAACTGATGGTCAGCTAAAGCTCG"
  STUDY TARGET: "PPARg:RXRa (NR concentration 180 nM, RXRa partner concentration 90 nM)"
  PBM binding z-score: 6.35
- SEQUENCE ENTRY: "TCATATAGGTAATACGGGTGAAAGTCGGCATCTA"
  STUDY TARGET: "PPARg:RXRa (NR concentration 180 nM, RXRa partner concentration 90 nM)"
  PBM binding z-score: 1.31
- SEQUENCE ENTRY: "CCTACTGGGGCATTCAGAGGTCATTGATCATATG"
  STUDY TARGET: "PPARg:RXRa (NR concentration 180 nM, RXRa partner concentration 90 nM)"
  PBM binding z-score: 3.34
- SEQUENCE ENTRY: "TCATATAGGTAAAGGCGAAAGTCGAACGATATGA"
  STUDY TARGET: "PPARg:RXRa (NR concentration 180 nM, RXRa partner concentration 90 nM)"
  PBM binding z-score: 1.1
- SEQUENCE ENTRY: "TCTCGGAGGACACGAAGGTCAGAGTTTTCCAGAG"
  STUDY TARGET: "PPARg:RXRa (NR concentration 180 nM, RXRa partner concentration 90 nM)"
  PBM binding z-score: 0.436
- SEQUENCE ENTRY: "CCGACTGTGGCAAGGTTACCATAACGCACAGCCA"
  STUDY TARGET: "PPARg:RXRa (NR concentration 180 nM, RXRa partner concentration 90 nM)"
  PBM binding z-score: 1.1
- SEQUENCE ENTRY: "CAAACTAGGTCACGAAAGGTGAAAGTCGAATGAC"
  STUDY TARGET: "PPARg:RXRa (NR concentration 180 nM, RXRa partner concentration 90 nM)"
  PBM binding z-score: 9.57
- SEQUENCE ENTRY: "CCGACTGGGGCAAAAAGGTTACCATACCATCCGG"
  STUDY TARGET: "PPARg:RXRa (NR concentration 180 nM, RXRa partner concentration 90 nM)"
  PBM binding z-score: 1.48
- SEQUENCE ENTRY: "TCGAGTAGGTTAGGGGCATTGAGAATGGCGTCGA"
  STUDY TARGET: "PPARg:RXRa (NR concentration 180 nM, RXRa partner concentration 90 nM)"
  PBM binding z-score: 0.706

----------
- Tested on: THRa homodimer (NR concentration 90 nM)
- PROTOCOL TEXT: PBM binding z-score (relative to random genomic background probes); higher = stronger binding; sequences stand for … in GC…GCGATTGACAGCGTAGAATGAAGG
Recorded measurements of PBM binding z-score, one per entry
RECORDED ENDPOINT: PBM binding z-score

- SEQUENCE ENTRY: "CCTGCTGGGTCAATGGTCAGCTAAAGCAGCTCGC"
  STUDY TARGET: "THRa homodimer (NR concentration 90 nM)"
  MEASURED RESULT: -0.14
- SEQUENCE ENTRY: "CGTCCAAGGTCATCGGAGGTCAGTGAAGACAGAT"
  STUDY TARGET: "THRa homodimer (NR concentration 90 nM)"
  MEASURED RESULT: 3.48
- SEQUENCE ENTRY: "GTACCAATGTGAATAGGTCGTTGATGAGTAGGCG"
  STUDY TARGET: "THRa homodimer (NR concentration 90 nM)"
  MEASURED RESULT: -0.677
- SEQUENCE ENTRY: "GCATATAGGTAAAACAAGGTGAAAGTCCGATTGT"
  STUDY TARGET: "THRa homodimer (NR concentration 90 nM)"
  MEASURED RESULT: 0.967
- SEQUENCE ENTRY: "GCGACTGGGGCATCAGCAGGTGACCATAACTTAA"
  STUDY TARGET: "THRa homodimer (NR concentration 90 nM)"
  MEASURED RESULT: -0.08
- SEQUENCE ENTRY: "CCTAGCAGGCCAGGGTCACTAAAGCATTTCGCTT"
  STUDY TARGET: "THRa homodimer (NR concentration 90 nM)"
  MEASURED RESULT: 0.878
- SEQUENCE ENTRY: "CGAACTAGGTCAAGGACAGTGCATCTCCGCACGC"
  STUDY TARGET: "THRa homodimer (NR concentration 90 nM)"
  MEASURED RESULT: 2.03
- SEQUENCE ENTRY: "CAAACTAGGTTACGAAAGGTCAAAGTCGAATGAC"
  STUDY TARGET: "THRa homodimer (NR concentration 90 nM)"
  MEASURED RESULT: 1.51
- SEQUENCE ENTRY: "TCGTATAGGTAAAGGTGAAAGTCGAACGATATGA"
  STUDY TARGET: "THRa homodimer (NR concentration 90 nM)"
  MEASURED RESULT: -0.212
- SEQUENCE ENTRY: "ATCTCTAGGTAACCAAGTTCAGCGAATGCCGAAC"
  STUDY TARGET: "THRa homodimer (NR concentration 90 nM)"
  MEASURED RESULT: 0.797
- SEQUENCE ENTRY: "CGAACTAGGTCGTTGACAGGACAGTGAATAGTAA"
  STUDY TARGET: "THRa homodimer (NR concentration 90 nM)"
  MEASURED RESULT: 0.0428
- SEQUENCE ENTRY: "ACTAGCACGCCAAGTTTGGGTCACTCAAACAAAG"
  STUDY TARGET: "THRa homodimer (NR concentration 90 nM)"
  MEASURED RESULT: 0.988
- SEQUENCE ENTRY: "TCTGCTAGGTCAGTTGGTGAGCTAACGAGCTGCC"
  STUDY TARGET: "THRa homodimer (NR concentration 90 nM)"
  MEASURED RESULT: -0.41
- SEQUENCE ENTRY: "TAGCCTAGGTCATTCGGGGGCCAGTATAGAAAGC"
  STUDY TARGET: "THRa homodimer (NR concentration 90 nM)"
  MEASURED RESULT: 1.48
- SEQUENCE ENTRY: "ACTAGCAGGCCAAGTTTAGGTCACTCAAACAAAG"
  STUDY TARGET: "THRa homodimer (NR concentration 90 nM)"
  MEASURED RESULT: 2.59
- SEQUENCE ENTRY: "CAGGCTAGGTCAGGGCCAGTATAGGAGGAACGTT"
  STUDY TARGET: "THRa homodimer (NR concentration 90 nM)"
  MEASURED RESULT: 0.49
- SEQUENCE ENTRY: "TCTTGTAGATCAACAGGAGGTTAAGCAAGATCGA"
  STUDY TARGET: "THRa homodimer (NR concentration 90 nM)"
  MEASURED RESULT: -0.612
- SEQUENCE ENTRY: "CGTCCAAGGTCAAAGGTCAGTGTAGAGATGACGG"
  STUDY TARGET: "THRa homodimer (NR concentration 90 nM)"
  MEASURED RESULT: 2.77
- SEQUENCE ENTRY: "TCTATTAGTTGAAGGACAACCGACGAGTCCGTTT"
  STUDY TARGET: "THRa homodimer (NR concentration 90 nM)"
  MEASURED RESULT: 0.684
- SEQUENCE ENTRY: "CGAACTAGGTCAGAACCGGACAGTGAAGGATGAT"
  STUDY TARGET: "THRa homodimer (NR concentration 90 nM)"
  MEASURED RESULT: 0.00608
- SEQUENCE ENTRY: "ATATGTAGGTTAGGTGGGGTCATTCAGACTAGGC"
  STUDY TARGET: "THRa homodimer (NR concentration 90 nM)"
  MEASURED RESULT: 3.72
- SEQUENCE ENTRY: "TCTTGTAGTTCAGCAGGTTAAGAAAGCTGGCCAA"
  STUDY TARGET: "THRa homodimer (NR concentration 90 nM)"
  MEASURED RESULT: 0.0556
- SEQUENCE ENTRY: "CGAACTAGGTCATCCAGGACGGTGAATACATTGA"
  STUDY TARGET: "THRa homodimer (NR concentration 90 nM)"
  MEASURED RESULT: 1.04
- SEQUENCE ENTRY: "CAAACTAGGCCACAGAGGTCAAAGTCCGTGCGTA"
  STUDY TARGET: "THRa homodimer (NR concentration 90 nM)"
  MEASURED RESULT: 1.62
- SEQUENCE ENTRY: "TATACAGGGTCAAAGGCCTGAGTACGAATGTCGA"
  STUDY TARGET: "THRa homodimer (NR concentration 90 nM)"
  MEASURED RESULT: 0.678
- SEQUENCE ENTRY: "ATACCAAGGTGATCGTGAGGTCGTTGATACTAAC"
  STUDY TARGET: "THRa homodimer (NR concentration 90 nM)"
  MEASURED RESULT: 2.63
